test method notes: qHTS for induction of synthetic lethality in tumor cells producing 2HG: qHTS for the HT-1080-IDH1KD cell line
measurement parameters: HT-1080 IDH1 knockdown viability, ATP luminescence, 48 h; series mostly up to 46.1 µM
Screen size: about 360,000 compounds; about 7,500 (2.1%) were called active. Another 8% or so got no clear call; they are omitted. Calls follow the shape of the dose curve; as a rule, active = well fitted cell-killing curve with a large enough effect; inconclusive = small, poorly fitted or top-dose-only effect, or effect the other way, or another doubt; inactive = no such curve, though single readings can be large or run the other way. Shown is part of a subset that was picked to be rich in actives.
Possible outcomes: active, inactive

molecule	cat
COc1ccccc1CCNS(=O)(=O)c1cn(C)nc1C	inactive
COC(=O)c1ccc2nc(-c3cccc(Br)c3)c(Cc3ccccc3C(F)(F)F)n2c1	inactive
COc1ccc(CC(=O)NC2CCSc3ccccc32)cc1OC (configuration not stated)	inactive
N#Cc1ccc(-c2ccc3nccn3c2)cc1	inactive
COc1cccc(C(NC(C)=O)c2nc(-c3cnc4ccccc4c3)cs2)c1 (configuration not stated)	inactive
CC1Cc2[nH][nH]c(=O)c2C(C2CC2)O1 (configuration not stated)	inactive
CC[C@]1(O)CC2CN(CCc3c([nH]c4ccccc34)[C@@](C(=O)OC)(c3cc4c(cc3OC)N(C=O)[C@H]3[C@@](O)(C(=O)OC)[C@H](OC(C)=O)[C@]5(CC)C=CCN6CC[C@]43[C@@H]65)C2)C1 (some centres not stated)	active
COC(=O)C1=CN(Cc2ccc(OC)c(OC)c2)C=C(C(=O)OC)C1c1cccs1	inactive
O=[N+]([O-])/C=C/c1ccc2c(ccn2Cc2ccccc2)c1	active
C[C@@H]1CN([C@@H](C)CO)C(=O)CCCn2nncc2CO[C@@H]1CN(C)S(=O)(=O)c1ccc(-c2ccccc2)cc1	inactive
COC(=O)c1ccc2nc(-c3cccc(Br)c3)c(Cc3ccc(OC)cc3C)n2c1	inactive
Cc1ccc(C(=O)OCC(=O)NC2CCCCCCC2)cc1C	inactive
C[C@H]1CN([C@@H](C)CO)C(=O)CCCn2cc(nn2)CO[C@@H]1CN(C)S(=O)(=O)c1cccs1	inactive
CN1CCN(c2ccncc2S(=O)(=O)N2CCCC2)CC1	inactive
COc1ccccc1NC(=O)[C@H](COCc1ccccc1)NC(=O)OC(C)(C)C	inactive
CCOC(=O)c1ccc(-c2ccc(C(=O)Nc3cccnc3)o2)cc1	inactive
CCOc1ccc(C(CC(=O)O)NC(=O)Cc2ccccc2)cc1OC (configuration not stated)	inactive
Cc1ccccc1S(=O)(=O)NC(=O)C1(C)CCN1C(=O)C1(c2ccc(Cl)cc2)CC1 (configuration not stated)	inactive
O=C(c1ccc2c(=O)n(Cc3ccco3)c(=S)[nH]c2c1)N1CCCC1	inactive
CCCNC(=O)C1(C)CCN1C(=O)C1(c2ccccc2)CC1 (configuration not stated)	inactive
Clc1ccc(-c2cc(C3CCNCC3)[nH]n2)c(Cl)c1	active
COc1ccc(-c2cc3c(c4c2ccn4C)C2CCC3C2)cn1 (configuration not stated)	inactive
CCN(CC)C(=O)C1=C(C)N(Cc2ccccc2)C(=O)C(CC(=O)NC(c2ccccc2)c2ccccc2)C1 (configuration not stated)	inactive
COC(=O)[C@]12CCCCC=C1N(Cc1cccc3ccccc13)C(=O)[C@H](CC(=O)N1CCOCC1)C2	inactive
CCCCCc1c(-c2cccc(Br)c2)ncn1CCc1ccccc1OC	active
COc1ccc(Br)c(Cn2c(C)c(C(=O)NCc3cccs3)sc2=O)c1	inactive
CCc1ccccc1NC(=O)CSc1nnc([C@@H](NC(=O)OC(C)(C)C)C(C)CC)o1 (some centres not stated)	inactive
O=C(Nc1ccc2c(c1)OCCO2)C(C1CC1)N1CCC(Cc2ccccc2)CC1 (configuration not stated)	inactive
CCCCC(=O)NC(c1ccc(OC)c(OC)c1)c1ccc2cccnc2c1O (configuration not stated)	active
CCOC(=O)[C@]12CCCC=C1N(CCC1=CCCCC1)C(=O)[C@H](CC(=O)N1CCOCC1)C2	inactive
CCCCCc1c(-c2ccc(OC)c(OC)c2)ncn1CCc1ccccc1OC	active
COc1ccc(CC2c3cc(OC)c(OC)cc3CC[N+]2(C)CCC(=O)OCCCCCOC(=O)CC[N+]2(C)CCc3cc(OC)c(OC)cc3C2Cc2ccc(OC)c(OC)c2)cc1OC (configuration not stated)	active
C1=C(CCNc2ncnc3c2cnn3-c2ccccc2)CCCC1	inactive
O=C(COC(=O)c1cncc(Br)c1)Nc1ccc(S(=O)(=O)N2CCOCC2)cc1	inactive
COc1ccc(-c2nn(-c3ccccc3)cc2C(=O)Nc2nccs2)cc1OC	inactive
CCCCc1c(-c2ccc(Br)cc2)ncn1CCc1ccccc1OC	active
C[C@H](CO)N1C[C@H](C)[C@@H](CN(C)C(=O)c2cccc(F)c2)Oc2cc(-c3cncnc3)ccc2S1(=O)=O	inactive
